Measured metric: melting point

Past entries and their recorded results:
* COc1cc(Nc2nc3cccc(-c4ccc(S(=O)(=O)N(C)C)cc4)c3o2)cc(OC)c1OC | 230 to 233 °C
* COc1cc(Nc2nc3cccc(-c4ccc(S(N)(=O)=O)cc4)c3o2)cc(OC)c1OC | 247 to 252 °C
* COc1cc(Nc2nc3cccc(-c4cncc5ccccc45)c3o2)cc(OC)c1OC | 201 to 203 °C
* COc1cc(Nc2nc3cccc(-c4ccc5[nH]cnc5c4)c3o2)cc(OC)c1OC (hydrate or solvate) | 150 to 156 °C
* COc1cc(Nc2nc3cccc(-c4ccc(CNC(C)=O)cc4)c3o2)cc(OC)c1OC (hydrate or solvate) | 237 to 239 °C

Now consider a different compound.
State the recorded melting point for this entry: COc1cc(Nc2nc3ccnc(-c4ccc(S(N)(=O)=O)cc4)c3o2)cc(OC)c1OC > 280 °C

* * *

Measured metric: melting point

Past entries and their recorded results:
• COc1cc(Nc2nc3cccc(-c4ccc(C)c(N)c4)c3o2)cc(OC)c1OC [Example 13] = 188 to 190 °C
• COc1cc(Nc2nc3cccc(-c4cccc(C)c4)c3o2)cc(OC)c1OC [Example 1] = 155 to 158 °C
• COc1ccc(-c2cccc3nc(Nc4cc(OC)c(OC)c(OC)c4)oc23)cc1 [Example 7] = 179 to 182 °C
• COc1cc(Nc2nc3ccnc(-c4cccc(N)c4)c3o2)cc(OC)c1OC [Example 37] = 120 to 126 °C

Next molecule, please.
Param item = CNC(=O)c1ccc(-c2cccc3nc(Nc4cc(OC)c(OC)c(OC)c4)oc23)cc1 [Example 24] ; retrieve measured melting point. 258 to 259 °C

* * *

Study system: GST-JAK2 (Homo sapiens, UniProt O60674)
Sequence (O60674 751-1129): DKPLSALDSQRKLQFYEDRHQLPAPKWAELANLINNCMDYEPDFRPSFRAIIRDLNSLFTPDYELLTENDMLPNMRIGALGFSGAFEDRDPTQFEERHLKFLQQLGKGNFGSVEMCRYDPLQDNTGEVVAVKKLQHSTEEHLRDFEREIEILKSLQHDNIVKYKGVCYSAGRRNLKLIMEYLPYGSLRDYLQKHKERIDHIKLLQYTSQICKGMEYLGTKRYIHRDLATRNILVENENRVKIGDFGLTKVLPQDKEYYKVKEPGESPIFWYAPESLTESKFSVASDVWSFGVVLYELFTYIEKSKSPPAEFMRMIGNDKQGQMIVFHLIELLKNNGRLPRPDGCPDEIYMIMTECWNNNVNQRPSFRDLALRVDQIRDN
Measured metric: pIC50
pIC50 is defined as minus the log10 of a concentration measured in mol/L.

* CNC(=O)c1ccc(-c2cccc3nc(Nc4cc(OC)c(OC)c(OC)c4)oc23)cc1 [Example 24] | 7.10
* COc1cc(Nc2nc3cccc(-c4cccc(CN)c4)c3o2)cc(OC)c1OC [Example 32] | 6.57
* COc1ccc(-c2cccc3nc(Nc4cc(OC)c(OC)c(OC)c4)oc23)cn1 [Example 12] | 6.17
* COc1cc(Nc2nc3cccc(-c4cccc(N)c4)c3o2)cc(OC)c1OC [Example 10] | 6.88

# get_value(readout= pIC50, system= GST-JAK2 (Homo sapiens, UniProt O60674)) for COc1cc(Nc2nc3cccc(-c4ccccc4C)c3o2)cc(OC)c1OC [Example 44] 6.03

* * *

Study system: GST-JAK2(808-1132) (Homo sapiens, UniProt O60674)
Sequence (O60674 808-1132): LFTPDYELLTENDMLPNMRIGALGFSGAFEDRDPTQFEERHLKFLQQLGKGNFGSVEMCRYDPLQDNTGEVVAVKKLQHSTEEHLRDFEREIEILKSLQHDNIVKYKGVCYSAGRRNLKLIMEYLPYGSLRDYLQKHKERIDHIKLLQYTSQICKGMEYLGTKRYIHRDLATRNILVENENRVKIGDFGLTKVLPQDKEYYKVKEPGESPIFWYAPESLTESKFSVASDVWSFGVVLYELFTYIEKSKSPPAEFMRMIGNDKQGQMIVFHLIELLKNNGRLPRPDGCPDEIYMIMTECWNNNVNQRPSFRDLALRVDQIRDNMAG
pIC50: −log10 of the molar value.
Tag: label 1 if measured pIC50 is not below 8, label 0 if it is.

Some solved cases for reference:
* CCN(CC)C(=O)c1ccc(Nc2nc3cccc(-c4ccc(CC(=O)N5CCS(=O)(=O)CC5)cc4)c3o2)cc1OC | label 1
* CNC(=O)c1ccc(Nc2nc3cccc(-c4cc(F)c(CN5CCOCC5)c(F)c4)c3o2)cc1C | label 0
* COCCN1CCN(c2ccc(Nc3nc4cccc(-c5ccc(S(C)(=O)=O)cc5)c4o3)cc2C)CC1 | label 0
* Cc1cc(Nc2nc3cccc(-c4ccc(C(=O)N5CCOCC5)c(F)c4)c3o2)ccc1CN1CCOCC1 | label 0

Identify whether the reported pIC50 of the following compound is 8 or greater: Cc1cc(Nc2nc3cccc(-c4ccc(C(=O)N5CCOCC5)c(F)c4)c3o2)ccc1N1CCN(C2CC2)CC1 label 0

Reported pIC50 at or above 8? Cc1cc(Nc2nc3cccc(-c4ccc(CC(=O)N5CCS(=O)(=O)CC5)cc4)c3o2)ccc1C(=O)N(C)C label 1

The measurements presented in this section are drawn from patent US8629168B2.
